Assay: Clearance in Sprague-Dawley rat at 2 mg/kg, iv and 10 mg/kg, po
Assay type: ADME, organism-based
Settings: in vivo

{"Structure String": "CC(C)(O)[C@]1(C)SC(N[C@H]2C[C@@H]3CC[C@H]2C3)=NC1=O", "clearance": "32 mL/min/kg"}
{"Structure String": "CC(C)[C@]1(C)SC(N[C@H]2C[C@H]3C[C@@H]2C[C@H]3O)=NC1=O", "clearance": "12.3 mL/min/kg"}
{"Structure String": "CC(C)[C@]1(C)SC(N[C@H]2C[C@H]3C[C@@H]2C[C@@H]3O)=NC1=O", "clearance": "7.33 mL/min/kg"}
{"Structure String": "CC(C)[C@]1(C)SC(N[C@H]2C[C@@H]3CC[C@H]2C3)=NC1=O", "clearance": "19.3 mL/min/kg"}
